# assay protocol: Peptide stability in simulated intestinal fluid (SIF)
# Type: in vitro ADME
# measurement context: 10 µM, 37 °C, porcine pancreatin, pH 6.8, 4 h
measured quantity: SIF (% remaining 4 h) (%)
Numeric only. Scale: %

Fill in the blank: the reported SIF (% remaining 4 h) of CC(C)C[C@]1(C)NC(=O)[C@H](Cc2ccc3ccccc3c2)NC(=O)[C@H](Cc2ccc(OCCN)cc2)NC(=O)[C@@H]2CCC(=O)N[C@H](CCCCNC(=O)CC[C@@H](C(=O)N[C@@H](CCN)C(=O)N[C@@H](Cc3cccnc3)C(N)=O)NC1=O)C(=O)N[C@@H]([C@@H](C)O)C(=O)N[C@@H](C(C)C)C(=O)N[C@@H](Cc1c[nH]c3ccccc13)C(=O)N[C@@H](CCC(N)=O)C(=O)N2 is ____.
0
